# Tested on: Rattus norvegicus
# protocolNotes: Antiallergic activity in anti-egg albumin homocytotropic antibody-sensitized Sprague-Dawley rat assessed as time of peak action for inhibition of passive cutaneous anaphylaxis reaction at 50 mg/kg, po administered prior to antigen egg albumin challenge
# Assay type: functional
Give Time for every item shown.
Answer format: numeric, min implied, no suffix.

Per the record, N#Cc1cc(NC(=O)C(=O)OC23CC4CC(CC(C4)C2)C3)c(Cl)c(NC(=O)C(=O)OC23CC4CC(CC(C4)C2)C3)c1 has Time of 60

Per the record, CCCCOC(=O)C(=O)Nc1cc(C#N)cc(NC(=O)C(=O)OCCCC)c1Cl has Time of 5

Per the record, CCOC(=O)C(=O)Nc1cc(C#N)cc(NC(=O)C(=O)OCC)c1Cl [LODOXAMIDE ETHYL] has Time of 5

Per the record, CCOC(=O)C(=O)Nc1cccc(NC(=O)C(=O)OCC)c1 has Time of 20

Per the record, CCCCCCOC(=O)C(=O)Nc1cc(C#N)cc(NC(=O)C(=O)OCCCCCC)c1Cl has Time of 5

Per the record, CCOC(=O)C(=O)Nc1cccc(NC(=O)C(=O)OCC)c1Cl has Time of 5
